# assayed.system: HLA-A*03:01
# assay.notes: IEDB peptide-MHC binding, purified MHC/competitive/radioactivity; filed as Kd, often an IC50 or EC50 that approximates it; bounds were set here for any values at or beyond the usual limits of such assays
# measurement.conditions: source organism: Vaccinia virus WR
pKd: −log10 of the molar value.
Label rule, in plain words: pKd of 6 and up is y, under 6 is n.

Q: Has NSKYSYELY a recorded pKd greater than or equal to 6?
A: n

Q: Identify whether the reported pKd of the following sequence is 6 or greater: FVNEKYCIIK
A: n

Q: Please tell me: is the sequence VSLVKKNKKR at or over 6 in terms of pKd?
A: n

Q: Identify whether the reported pKd of the following sequence is 6 or greater: KSINKVYGR
A: y

Q: Form field: pKd at least 6? Entry: NSSAVVDNK
A: n

Q: Is pKd for DAKNDDWKKY at or above 6?
A: n

Q: Decide: is the reported value of pKd for LSEYETMVDY equal to or greater than 6?
A: n

Q: Could you please find out whether DTEDIVSDSK has pKd that meets 6 or exceeds it?
A: n

Q: Has TAKVIKLVK a recorded pKd greater than or equal to 6?
A: n

Q: In plain terms: is recorded pKd at least 6 for NTLISSDGAR ?
A: n

Q: Textbook exercise: given the entry VIRLLIWAY , state whether its pKd is greater than or equal to 6.
A: n

Q: Decide: is the reported value of pKd for FAEESYTYYY equal to or greater than 6?
A: n

Q: Is it the case that STIANSNIIK has pKd reaching or exceeding 6?
A: y

Q: hey, is pKd for this one >= 6? DIDILQTNSR
A: y

Q: Would you say VIENGILKK shows pKd at minimum 6?
A: y

Q: For this sequence, is measured pKd 6 or higher? ITGNNIILSK
A: y

Q: Threshold query (pKd >= 6) on IFNEDTSYY
A: n

Q: I'd appreciate it if you could say whether IMDKEQLLK has pKd at least equal to 6.
A: y

Q: Answer whether pKd of ESKAKQLCY is greater than or equal to 6.
A: n

Q: Dear colleague, could you confirm whether SILSLETVK has pKd at or above 6?
A: y

Q: Reported pKd at or above 6? IFVSLVKKNK
A: y

Q: # check: pKd of SSSVDVDIY is greater than or equal to 6
A: n

Q: Reported pKd at or above 6? GVTSSGAIYK
A: y

Q: Decide: pKd of RFVEELLHR >= 6?
A: n

Q: Would you say DVDTSASEIK shows pKd at minimum 6?
A: n

Q: Kindly determine if pKd recorded for YTFFSYLMK is above or exactly 6.
A: y

Q: Would you say KLVKSLVDK shows pKd at minimum 6?
A: y

###

# assayed.system: HLA-A*02:02
# assay.notes: IEDB peptide-MHC binding, purified MHC/competitive/radioactivity; filed as Kd, often an IC50 or EC50 that approximates it; bounds were set here for any values at or beyond the usual limits of such assays
# measurement.conditions: source organism: Vaccinia virus WR
Provide the reported Kd of each item.

Field Kd (system: HLA-A*02:02) for entry DVIKSISSI = ≥ 63.8 µM

Bench note, HLA-A*02:02: entry PMIIGEPIIV , its Kd = ≥ 70 µM

I looked up RLEVIGLTT and its Kd for HLA-A*02:02 was ≥ 20 µM

Per the reported HLA-A*02:02 data, IASAPQQLCT has Kd of ≥ 53.2 µM

###

# assayed.system: HLA-A*02:06
# assay.notes: IEDB peptide-MHC binding, purified MHC/competitive/radioactivity; filed as Kd, often an IC50 or EC50 that approximates it; bounds were set here for any values at or beyond the usual limits of such assays
# measurement.conditions: source organism: Vaccinia virus WR
pKd: −log10 of the molar value.
measured.attribute: pKd

Query MMLVPLITV yields pKd of ≤ 4.11

// pKd lookup, sequence = GLTTHCTKL , result: ≤ 4.50

Summary for this sequence, EIRGVLPEET : pKd is ≤ 4.70

For VTKSSSWKDV the sequence record lists pKd as ≤ 4.16

###

# assayed.system: HLA-A*03:01
# assay.notes: IEDB peptide-MHC binding, purified MHC/competitive/radioactivity; filed as Kd, often an IC50 or EC50 that approximates it; bounds were set here for any values at or beyond the usual limits of such assays
# measurement.conditions: source organism: Vaccinia virus WR
Record form. Attribute: Kd. Fill in for each entry.

Field Kd (entry YLINPNILY ) reads 1520 nM

In plain terms, PLHILASNKK has a documented Kd of 1480 nM

For YSRVNHAKY the sequence record lists Kd as 1530 nM
